The measurements presented in this section are drawn from ChEMBL document CHEMBL5058577.

Tested on: HEK-293T
Assay: Multiplex assay against HEK293T
Assay type: toxicity, cell-based
Details: human, 48 h, 1 µM, compound concentration 1 uM, replicate 2
Reported Population Hoechst High Intensity Objects (%) values for the following molecules.
Report the figure in % without appending any unit label.

Some solved entries appear below for comparison.
Cl.Clc1ccc2nsnc2c1NC1=NCCN1 [TIZANIDINE HYDROCHLORIDE] ... 3
CCCC(CCC)C(=O)O [VALPROIC ACID] ... 3
O=S(=O)(c1ccccc1)c1cnc2c(N3CCNCC3)cccc2c1 [INTEPIRDINE] ... 3
CCCN1CCC[C@@H]2Cc3n[nH]cc3C[C@H]21.Cl [QUINPIROLE HYDROCHLORIDE] ... 2

Please turn your attention to the following entry.
Field Population Hoechst High Intensity Objects (%) (HEK-293T), entry COc1ccc2c(c1)C(C(=O)N(Cc1ccc(N(C)C)cc1)c1ccc(C(C)C)cc1)CCC2.Cl (stereo not given) : 4

---

Recorded Population Mitotic Cells (%), one value per entry.
Tested on: HEK-293T
Experiment: Multiplex assay against HEK293T
Type: toxicity, cell-based
Conditions: human, 12 h, 1 µM, compound concentration 1 uM, replicate 1
Numbers only; they are read as %.

Worked set:
C[C@H]1[C@H]2CC[C@H]3[C@@H]4CC=C5C[C@@H](N(C)C)CC[C@]5(C)[C@H]4CC[C@]23CN1C [CONESSINE] ... 65
CCOc1c2c(c(OCC)c3ncccc13)CN(c1ccc(CS(=O)(=O)NC(=O)Cc3ccccc3OC)cc1C)C2=O ... 66
O=C(O)c1cc2ccccc2c(Cc2c(O)c(C(=O)O)cc3ccccc23)c1O [PAMOIC ACID] ... 69
COc1ccccc1N1CCN(CCCCNC(=O)c2ccc3ccccc3c2)CC1.Cl ... 54

From here, focus on the item given below.
Reported Population Mitotic Cells (%) of "COc1cc(C(=O)N(CCCc2ccccc2)Cc2ccc(CC(=O)O)cc2)cc(OC)c1C" : 55

---

System: U2OS
Assay: Multiplex assay against U2OS
Assay type: toxicity, cell-based
Conditions: human, 24 h, 10 µM, compound concentration 10 uM, replicate 2
measured-attribute: Population Healthy Nuclei (%)
Give the quantity in %, number only.

Known Population Healthy Nuclei (%) results, listed for orientation:
CCOc1c2c(c(OCC)c3ncccc13)CN(c1ccc(CS(=O)(=O)NC(=O)Cc3ccccc3OC)cc1C)C2=O ... 76
COc1c(C)cc(NC(=O)c2nn(Cc3ccc(F)cc3)c3c2CN(C(=O)c2ccc[nH]2)C[C@]3(C)C(N)=O)cc1C ... 53
CCCC(CCC)C(=O)O ... 78
Cc1ccccc1C(=O)Nc1ccc(C(=O)N2CCCC(N(C)C)c3ccccc32)cc1.Cl (configuration not stated) ... 53
Cc1ccc(/C(=C\CN2CCCC2)c2ccccn2)cc1 ... 70

Lookup result for "N#Cc1c(N)nc(SCc2csc(-c3ccc(Cl)cc3)n2)c(C#N)c1-c1ccc(OCCO)cc1" ; measured Population Healthy Nuclei (%): 49

In plain terms, O=S(=O)(c1ccccc1)c1cnc2c(N3CCNCC3)cccc2c1 [INTEPIRDINE] has a documented Population Healthy Nuclei (%) of 77

---

Some compounds, each annotated with its measured Total Cell Count.
Test system: U2OS
Test: Multiplex assay against U2OS
Type: toxicity, cell-based
Conditions: human, 12 h, 1 µM, compound concentration 1 uM, replicate 2
Lab note: record just the number, no unit beside it.

Before answering, review these 3 worked examples.
CCNC1(C(N)=O)CCN(c2ncnc3c2nc(-c2ccccc2Cl)n3-c2ccc(Cl)cc2)CC1 ... 93
CSc1ccccc1N1CCN(CCCCCC(=O)NC2CCCc3ccccc32)CC1.Cl (stereo not given) ... 101
CC(C)(C)c1ccc(S(=O)(=O)Nc2ccc(Cl)cc2C(=O)c2cc[n+]([O-])cc2)cc1 ... 156

Per the record, "O=C(O)c1cc2ccccc2c(Cc2c(O)c(C(=O)O)cc3ccccc23)c1O" has Total Cell Count of 109

Sample "COc1cc(C(=O)N(CCCc2ccccc2)Cc2ccc(CC(=O)O)cc2)cc(OC)c1C" ; Total Cell Count observed: 93
